Below, each of the compounds is paired with its reported Ki value.
Molecular target: DOR (Rattus norvegicus)
Construct: from tissue
Sequence (P33533 whole entry): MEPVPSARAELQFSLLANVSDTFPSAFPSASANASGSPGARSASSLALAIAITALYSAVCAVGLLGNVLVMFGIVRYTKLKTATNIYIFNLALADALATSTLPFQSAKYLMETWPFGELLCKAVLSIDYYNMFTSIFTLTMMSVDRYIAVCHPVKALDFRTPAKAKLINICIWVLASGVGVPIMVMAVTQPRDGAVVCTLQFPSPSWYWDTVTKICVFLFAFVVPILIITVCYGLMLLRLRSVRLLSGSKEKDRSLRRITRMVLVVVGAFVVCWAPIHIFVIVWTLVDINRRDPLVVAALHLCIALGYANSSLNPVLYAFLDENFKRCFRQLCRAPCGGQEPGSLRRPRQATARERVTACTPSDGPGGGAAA
Experiment: Opioid receptor binding, DOR, rat brain membranes
Conditions: Binding Ki (nM) DOR, in vitro binding assay, rat brain membranes
The reply should contain only the number, in nM.

Query: Reported Ki for CO[C@@]12CC[C@H](N[C@@H](C)C(=O)OC(C)(C)C)[C@@H]3Oc4c(O)ccc5c4[C@@]31CCN(C)[C@@H]2C5 [1-t-Bu ester] : what is it?
Response: 0.41

Query: Reported Ki for CO[C@@]12CC[C@H](NCC(=O)OCc3ccccc3)[C@@H]3Oc4c(O)ccc5c4[C@@]31CCN(C)[C@@H]2C5 [HS730-benzyl ester] : what is it?
Response: 0.91

Query: Reported Ki for COC12CCC(NC(C(=O)O)C(C)C)C3Oc4c(O)ccc5c4C31CCN(C)C2C5 (single isomer, unassigned) [Compound 31] : what is it?
Response: 1.68

Query: Reported Ki for CO[C@@]12CC[C@@H](N[C@H](C(=O)O)[C@@H](C)O)[C@@H]3Oc4c(O)ccc5c4[C@@]31CCN(C)[C@@H]2C5 [Compound 35] : what is it?
Response: 5.16
